# TARGET UNDER TEST: human recombinant HDAC6 (Homo sapiens)
# Construct: purchased Calbiochem Inc. 382180
# ASSAY REMARKS: HDAC6 enzyme activity inhibition (HDAC Fluorimetric Drug Discovery Kit)
# Format: biochemical
# ASSAY SETUP: HDAC1 IC50 / HDAC6 IC50
PROPERTY LABEL: HDAC6 selectivity (fold)

Study these solved cases before continuing.
1. FC(F)c1nnc(-c2ccc(Cn3cc(-c4ccc5[nH]ccc5c4)nn3)nc2)o1 = 4854
2. O=C(O)c1cccc(-c2cn(Cc3ccc(-c4nnc(C(F)F)o4)cc3F)nn2)c1 = 175
3. CC(C)(F)C(=O)Nc1cccc(-c2cn(Cc3ccc(-c4nnc(C(F)F)o4)cc3)nn2)c1 = 846

(P) CN1CCN(Cc2c[nH]c3cc(-c4cn(Cc5ccc(-c6nnc(C(F)F)o6)cn5)nn4)ccc23)CC1
(Q) FC(F)c1nnc(-c2ccc(Cn3cc(-c4ccccc4)nn3)cc2)o1
Kindly identify which of P and Q has the larger recorded HDAC6 selectivity (fold) value. Respond using the label that marks the chosen record.
P

###

# TARGET UNDER TEST: human recombinant HDAC6 (Homo sapiens, UniProt Q9UBN7)
# Construct: purchased Calbiochem Inc. 382180
# Sequence (Q9UBN7 1-1215): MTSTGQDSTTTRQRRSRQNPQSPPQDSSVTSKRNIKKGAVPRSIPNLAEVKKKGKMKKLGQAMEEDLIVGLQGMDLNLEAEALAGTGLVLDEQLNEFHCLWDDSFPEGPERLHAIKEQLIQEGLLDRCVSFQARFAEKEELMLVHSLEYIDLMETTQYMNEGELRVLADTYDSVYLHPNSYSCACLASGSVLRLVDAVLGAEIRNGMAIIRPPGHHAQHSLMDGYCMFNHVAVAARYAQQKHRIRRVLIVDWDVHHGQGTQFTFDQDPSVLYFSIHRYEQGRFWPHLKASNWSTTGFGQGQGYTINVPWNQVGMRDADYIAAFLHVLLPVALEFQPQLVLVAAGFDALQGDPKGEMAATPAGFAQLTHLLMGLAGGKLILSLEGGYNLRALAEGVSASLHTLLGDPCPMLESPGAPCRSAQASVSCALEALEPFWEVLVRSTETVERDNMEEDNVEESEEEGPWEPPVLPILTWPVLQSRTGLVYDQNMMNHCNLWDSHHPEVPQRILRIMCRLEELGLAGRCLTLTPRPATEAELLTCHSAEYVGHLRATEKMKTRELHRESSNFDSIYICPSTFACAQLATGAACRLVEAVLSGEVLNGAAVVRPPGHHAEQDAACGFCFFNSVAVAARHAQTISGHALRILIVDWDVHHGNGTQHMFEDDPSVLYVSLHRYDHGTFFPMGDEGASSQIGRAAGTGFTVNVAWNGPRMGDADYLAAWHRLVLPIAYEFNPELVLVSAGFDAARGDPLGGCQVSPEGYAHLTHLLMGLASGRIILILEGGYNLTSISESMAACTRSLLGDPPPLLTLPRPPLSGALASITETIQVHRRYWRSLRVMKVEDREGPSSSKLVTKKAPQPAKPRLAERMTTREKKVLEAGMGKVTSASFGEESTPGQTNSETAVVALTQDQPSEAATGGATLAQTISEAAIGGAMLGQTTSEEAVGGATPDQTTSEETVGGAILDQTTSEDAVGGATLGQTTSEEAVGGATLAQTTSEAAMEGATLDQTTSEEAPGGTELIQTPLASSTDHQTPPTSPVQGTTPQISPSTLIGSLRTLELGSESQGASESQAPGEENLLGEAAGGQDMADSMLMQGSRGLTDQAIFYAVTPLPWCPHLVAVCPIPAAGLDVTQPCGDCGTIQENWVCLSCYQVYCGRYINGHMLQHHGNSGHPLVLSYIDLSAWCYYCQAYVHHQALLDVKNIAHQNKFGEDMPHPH
# ASSAY REMARKS: HDAC6 enzyme activity inhibition (HDAC Fluorimetric Drug Discovery Kit)
# Assay type: biochemical
# ASSAY SETUP: HDAC1 IC50 / HDAC6 IC50
PROPERTY LABEL: HDAC6 selectivity (fold)

Worked cases, HDAC6 selectivity (fold) given:
1. FC(F)c1nnc(-c2ccc(Cn3cc(-c4ccco4)nn3)nc2)o1 [Compound 3861] = 922
2. FC(F)c1cccc(-c2cn(Cc3ccc(-c4nnc(C(F)F)o4)cn3)nn2)c1 [Compound 4489] = 3401
3. FC(F)c1nnc(-c2ccc(Cn3cc(-c4ccc5cc[nH]c5c4)nn3)nc2)o1 [Compound 3838] = 7142

(I) CCOC(=O)N(C)c1cccc(-c2cn(Cc3ccc(-c4nnc(C(F)F)o4)cn3)nn2)c1 [Compound 3890]
(II) CCN1CCN(c2cccc(-c3cn(Cc4ccc(-c5nnc(C(F)F)o5)cc4F)nn3)c2)CC1 [Compound 4373]
(III) CN1CCN(C(=O)c2cccc(-c3cn(Cc4ccc(-c5nnc(C(F)F)o5)cn4)nn3)c2)CC1 [Compound 3887]
Please produce an ascending ranking of these compounds based on HDAC6 selectivity (fold). Answer format: list of labels, ordered as asked.
II, III, I
(II: 335 fold, III: 875 fold, I: 1319 fold)

(1) Fc1cc(-c2nnc(C(F)F)o2)ccc1Cn1cc(C2(F)CCOC2)nn1 (centres unmarked) [Compound 4283]
(2) CN1CCc2cc(-c3cn(Cc4ccc(-c5nnc(C(F)F)o5)cc4F)nn3)ccc2C1 [Compound 4358]
# argmax over HDAC6 selectivity (fold) for candidates 1 and 2 Your answer should be the label of the entry you select.
2

(A) CN1CCC(c2cccc(-c3cn(Cc4ccc(-c5nnc(C(F)F)o5)cn4)nn3)c2)CC1 [Compound 4010]
(B) Fc1cc(-c2nnc(C(F)F)o2)ccc1Cn1cc(-c2ccc(CNC3COC3)cc2)nn1 [Compound 4469]
Determine, for A and B , which has the greater value of HDAC6 selectivity (fold). Which one? Tell me its label.
A

###

# TARGET UNDER TEST: human recombinant HDAC6 (Homo sapiens, UniProt Q9UBN7)
# Construct: purchased Calbiochem Inc. 382180
# Sequence (Q9UBN7 1-1215): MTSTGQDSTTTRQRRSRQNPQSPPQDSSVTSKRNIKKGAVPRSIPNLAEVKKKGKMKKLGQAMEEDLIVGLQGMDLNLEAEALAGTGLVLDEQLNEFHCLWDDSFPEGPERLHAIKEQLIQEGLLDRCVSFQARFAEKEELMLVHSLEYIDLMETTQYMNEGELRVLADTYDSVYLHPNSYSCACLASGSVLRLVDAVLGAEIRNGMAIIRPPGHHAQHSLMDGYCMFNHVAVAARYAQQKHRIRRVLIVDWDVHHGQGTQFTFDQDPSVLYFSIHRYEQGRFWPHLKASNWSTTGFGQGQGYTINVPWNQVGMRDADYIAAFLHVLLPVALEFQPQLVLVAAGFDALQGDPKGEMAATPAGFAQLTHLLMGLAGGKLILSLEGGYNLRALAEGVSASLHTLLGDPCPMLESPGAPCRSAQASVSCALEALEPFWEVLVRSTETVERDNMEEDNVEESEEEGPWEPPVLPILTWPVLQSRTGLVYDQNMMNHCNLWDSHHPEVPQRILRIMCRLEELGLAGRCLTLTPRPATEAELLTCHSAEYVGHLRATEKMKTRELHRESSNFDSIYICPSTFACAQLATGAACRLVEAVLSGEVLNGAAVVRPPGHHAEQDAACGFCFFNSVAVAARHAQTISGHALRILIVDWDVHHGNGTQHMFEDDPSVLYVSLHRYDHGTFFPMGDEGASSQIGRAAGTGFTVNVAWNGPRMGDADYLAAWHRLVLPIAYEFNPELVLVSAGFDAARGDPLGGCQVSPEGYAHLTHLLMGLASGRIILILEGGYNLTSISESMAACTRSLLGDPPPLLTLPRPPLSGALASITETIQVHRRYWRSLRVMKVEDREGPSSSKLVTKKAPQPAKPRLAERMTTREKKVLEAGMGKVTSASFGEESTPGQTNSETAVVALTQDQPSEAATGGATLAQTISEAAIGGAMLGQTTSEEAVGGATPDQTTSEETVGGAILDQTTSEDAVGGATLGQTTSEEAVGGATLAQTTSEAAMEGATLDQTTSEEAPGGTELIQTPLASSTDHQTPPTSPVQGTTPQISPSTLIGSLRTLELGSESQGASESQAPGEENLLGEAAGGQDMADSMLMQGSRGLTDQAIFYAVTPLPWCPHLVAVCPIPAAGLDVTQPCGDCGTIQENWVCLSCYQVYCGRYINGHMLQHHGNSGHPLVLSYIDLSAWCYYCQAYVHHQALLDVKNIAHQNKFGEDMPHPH
# ASSAY REMARKS: HDAC6 enzyme activity inhibition (HDAC Fluorimetric Drug Discovery Kit)
# Format: biochemical
# ASSAY SETUP: HDAC6 over HDAC1
PROPERTY LABEL: HDAC6 selectivity (fold)

1. CCN1Cc2ccc(-c3cn(Cc4ccc(-c5nnc(C(F)F)o5)cc4F)nn3)cc2C1 [Compound 4516] = 680

(1) Fc1cc(-c2nnc(C(F)F)o2)ccc1Cn1cc(-c2ccc(CN3CCCC3)s2)nn1 [Compound 17913]
(2) CC1CCN(Cc2cccc(-c3cn(Cc4ncc(-c5nnc(C(F)F)o5)cc4F)nn3)c2)CC1 [Compound 18459]
(3) Fc1cc(-c2nnc(C(F)F)o2)cnc1Cn1cc(-c2cc(Cl)cc(CN3CCCC3)c2)nn1 [Compound 19092]
Hey, quick one: sort these by HDAC6 selectivity (fold), low to high? // list labels; follow requested order
3, 2, 1

FYI, the data here is from patent US20230257372A1.
